Biological target: T1, hnRNPLL RRM1 WT (Mus musculus, UniProt Q921F4 109-213)
T1 sequence: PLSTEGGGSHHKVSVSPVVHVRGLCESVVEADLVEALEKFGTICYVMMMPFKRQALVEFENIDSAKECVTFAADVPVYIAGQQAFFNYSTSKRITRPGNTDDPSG
Assay: NMR titration
Measurement label: pKd
One number for each entry, as −log10 of the molar value.

[Q] Please report pKd for the following binder: CCUUACCUGCACGCA (ssRNA) [Ptprc exon 6 ARS 15-mer WT]
[A] 7.00
